Please provide measured enrichment ratio for the entries that follow.
B1: PhoQ; a variant is named by its letters at X, in order, P23837 (parent)
chain: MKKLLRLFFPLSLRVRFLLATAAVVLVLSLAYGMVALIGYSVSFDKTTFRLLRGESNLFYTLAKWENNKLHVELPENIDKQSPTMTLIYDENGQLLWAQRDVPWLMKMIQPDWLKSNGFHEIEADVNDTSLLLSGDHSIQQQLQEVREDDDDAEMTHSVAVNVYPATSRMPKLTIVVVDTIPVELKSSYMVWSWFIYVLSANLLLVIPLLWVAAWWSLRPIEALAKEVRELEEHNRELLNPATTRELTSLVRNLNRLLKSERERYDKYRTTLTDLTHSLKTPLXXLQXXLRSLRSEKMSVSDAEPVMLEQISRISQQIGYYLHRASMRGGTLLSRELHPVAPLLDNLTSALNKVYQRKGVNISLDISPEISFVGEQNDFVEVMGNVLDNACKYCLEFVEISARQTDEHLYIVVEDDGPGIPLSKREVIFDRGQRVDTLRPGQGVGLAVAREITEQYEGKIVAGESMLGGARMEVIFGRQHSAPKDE

Variants of: B1
ASSAY COMMENT: enrichment ratio after two sorts for PhoP signalling (ratio (wild type AVST 3.29)); higher = more functional
RUN PARAMETERS: with PhoP (E. coli)
The full ranking holds about 140,000 sequences; the median of “enrichment ratio after two sorts for PhoP signalling” is about 0, and the highest 2% start at about 11. What follows is part of a selection rich in the highest values, with near analogues and random picks from the rest.
Form rule: numeric answer, no unit written next to it.

Consider the variant shown here: ACTK What is its recorded enrichment ratio? 4.69

Next variant: MTAL 5.98

Next variant: SSAL 12.2

Next variant: ACTL 15.2

Next variant: VNCM 4.53
